Biological target: Prostaglandin D2 receptor 2 (Mus musculus)
Sequence (Q9Z2J6 whole entry): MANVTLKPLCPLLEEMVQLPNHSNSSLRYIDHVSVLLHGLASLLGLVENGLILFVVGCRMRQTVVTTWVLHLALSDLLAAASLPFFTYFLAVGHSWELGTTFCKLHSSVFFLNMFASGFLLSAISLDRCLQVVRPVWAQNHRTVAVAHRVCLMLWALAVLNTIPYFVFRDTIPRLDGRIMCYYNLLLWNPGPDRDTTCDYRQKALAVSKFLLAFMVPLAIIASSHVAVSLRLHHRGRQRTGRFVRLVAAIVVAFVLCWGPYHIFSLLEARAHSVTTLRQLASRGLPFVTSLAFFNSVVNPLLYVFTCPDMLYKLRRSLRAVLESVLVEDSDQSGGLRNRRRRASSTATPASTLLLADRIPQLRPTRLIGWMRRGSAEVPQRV
Test: Inhibition of mouse CRTH2 receptor
experimentalReadout: IC50 (nM)

# compoundStructure, experimentalTarget, experimentalReadout, dataValue
records = [
    ("O=C(O)COc1ccc(Br)cc1C(=O)c1cnn(-c2ccccc2)c1", "Prostaglandin D2 receptor 2 (Mus musculus)", "IC50", 3.2),
]
